# targetUnderTest: SARS-CoV-2 NSP3 Mac1 (Severe acute respiratory syndrome coronavirus 2, UniProt P0DTD1)
# Format: binding
# runConditions: true hit = binding in crystallographic soaking or the HTRF-based binding assay
measurementLabel: HIT*

* O=C(Nc1ccccc1)Nc1ccc(C(=O)NC2c3cccc(O)c3CC2C(=O)O)cc1 (stereo not drawn) [Z8539_0023] | Y
* O=c1nc(N2CC(Cn3cnnc3)C3(CCC3)C2)cc(Cl)[nH]1 (stereo not drawn) [FRESH00020289192] | Y
* Cc1ccc([C@@H]2C[C@@H](C)CCN2C(=O)c2ncnc3[nH]ccc23)o1 [ZINC000611664196] | Y
